tested on: IGROV1 complex spheroids (HUVEC, MSC), viability % test/control; test: Anticancer human tumor IGROV1 cell line growth inhibition [GQUAD]; settings: second compound 10 µM; first compound 10 µM; active = viability on the fitted dose curve at most 10% of control; inactive = the rest;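 also: spheroids exposed to compounds for 7 days before readout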
Response enum: active, inactive

stdin: Outcome logged for COc1ncnc(C2CC2)c1-c1ncc2cnn(Cc3ccc(-c4nc(C(F)(F)F)cn4C(C)C)cc3)c2n1 + Cc1cnc(CNC(=O)c2c(=O)c3ccc(N4CCCN(C)CC4)nc3n3c2sc2ccccc23)cn1 in this assay:
stdout: active

stdin: Request: COc1cc(C2c3cc4c(cc3C(OC3OC5COC(C)OC5C(O)C3O)C3COC(=O)C23)OCO4)cc(OC)c1O (centres undefined) + CN(C)c1ccc(Nc2c3ccc(NC(=O)CCN4CCCC4)cc3nc3cc(NC(=O)CCN4CCCC4)ccc23)cc1
stdout: active

stdin: Request: CC(C)n1c(=O)n(C)c2cnc3cc(F)c(-c4ccc(OCCCN5CCCCC5)nc4)cc3c21 + Cc1cnc(CNC(=O)c2c(=O)c3ccc(N4CCCN(C)CC4)nc3n3c2sc2ccccc23)cn1
stdout: active

stdin: Request: COc1ncnc(C2CC2)c1-c1ncc2cnn(Cc3ccc(-c4nc(C(F)(F)F)cn4C(C)C)cc3)c2n1 + CN(C)c1ccc(Nc2c3ccc(NC(=O)CCN4CCCC4)cc3nc3cc(NC(=O)CCN4CCCC4)ccc23)cc1
stdout: inactive

stdin: Request: CC(=O)O[C@H]1C(=O)[C@@]2(C)[C@H]([C@H](OC(=O)c3ccccc3)[C@]3(O)C[C@H](OC(=O)[C@H](O)[C@@H](NC(=O)c4ccccc4)c4ccccc4)C(C)=C1C3(C)C)[C@]1(OC(C)=O)CO[C@@H]1C[C@@H]2O + Cc1cnc(CNC(=O)c2c(=O)c3ccc(N4CCCN(C)CC4)nc3n3c2sc2ccccc23)cn1
stdout: active

stdin: Request: CC1COCCN1c1cc(C2(O)CC3CCC(C2)O3)c2cnn(-c3ccn[nH]3)c2n1 (centres undefined) + Cc1[nH]c2ccc(F)cc2c1-c1nc2c3cccnc3c3ncccc3c2[nH]1
stdout: active

stdin: Request: O=c1[nH]cc(F)c(=O)[nH]1 + Cc1cnc(CNC(=O)c2c(=O)c3ccc(N4CCCN(C)CC4)nc3n3c2sc2ccccc23)cn1
stdout: active

stdin: Request: C=CCn1c(=O)c2cnc(Nc3ccc(N4CCN(C)CC4)cc3)nc2n1-c1cccc(C(C)(C)O)n1 + Cc1[nH]c2ccc(F)cc2c1-c1nc2c3cccnc3c3ncccc3c2[nH]1
stdout: active

stdin: Request: COc1ncnc(C2CC2)c1-c1ncc2cnn(Cc3ccc(-c4nc(C(F)(F)F)cn4C(C)C)cc3)c2n1 + Cc1[nH]c2ccc(F)cc2c1-c1nc2c3cccnc3c3ncccc3c2[nH]1
stdout: active

stdin: Request: O=C(c1cc(Cc2n[nH]c(=O)c3ccccc23)ccc1F)N1CCN(C(=O)C2CC2)CC1 + CN(C)c1ccc(Nc2c3ccc(NC(=O)CCN4CCCC4)cc3nc3cc(NC(=O)CCN4CCCC4)ccc23)cc1
stdout: inactive

stdin: Request: C=CCn1c(=O)c2cnc(Nc3ccc(N4CCN(C)CC4)cc3)nc2n1-c1cccc(C(C)(C)O)n1 + CN(C)c1ccc(Nc2c3ccc(NC(=O)CCN4CCCC4)cc3nc3cc(NC(=O)CCN4CCCC4)ccc23)cc1
stdout: active

stdin: Request: COc1cccc2c1C(=O)c1c(O)c3c(c(O)c1C2=O)CC(O)(C(=O)CO)CC3OC1CC(N)C(O)C(C)O1 (centres undefined) + Cc1[nH]c2ccc(F)cc2c1-c1nc2c3cccnc3c3ncccc3c2[nH]1
stdout: active

stdin: Request: Nc1ccn(C2OC(CO)C(O)C2(F)F)c(=O)n1 (centres undefined) + CN(C)c1ccc(Nc2c3ccc(NC(=O)CCN4CCCC4)cc3nc3cc(NC(=O)CCN4CCCC4)ccc23)cc1
stdout: active

stdin: Request: COc1ccc([C@@H](O)c2cc(-c3ncnc4cc(N5CCOCC5)ccc34)c(F)cc2Cl)nn1 + Cc1[nH]c2ccc(F)cc2c1-c1nc2c3cccnc3c3ncccc3c2[nH]1
stdout: active

----------
test system: IGROV1 complex spheroids (HUVEC, MSC), viability % test/control; experiment: Anticancer human tumor IGROV1 cell line growth inhibition [GQUAD]; details: second compound 1 µM; first compound 0.1 µM; stronger effect = lower value;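 also: spheroids exposed to compounds for 7 days before readout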;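 as to viability, T/C: 100% = DMSO vehicle control viability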
quantity kind: viability, T/C (%)
Write the number in % without appending the unit.

stdin: Requested read-out: viability, T/C. Entry: O=C(c1cc(Cc2n[nH]c(=O)c3ccccc23)ccc1F)N1CCN(C(=O)C2CC2)CC1 + Cc1cnc(CNC(=O)c2c(=O)c3ccc(N4CCCN(C)CC4)nc3n3c2sc2ccccc23)cn1
stdout: 17.3

stdin: Request: COc1ncnc(C2CC2)c1-c1ncc2cnn(Cc3ccc(-c4nc(C(F)(F)F)cn4C(C)C)cc3)c2n1 + Cc1[nH]c2ccc(F)cc2c1-c1nc2c3cccnc3c3ncccc3c2[nH]1
stdout: 3.51

stdin: Request: Cc1cccc(N(C)C(=O)C2C(O)CCN2c2nc(C)cc(C(F)(F)F)c2C#N)c1 (centres undefined) + CN(C)c1ccc(Nc2c3ccc(NC(=O)CCN4CCCC4)cc3nc3cc(NC(=O)CCN4CCCC4)ccc23)cc1
stdout: 90.6

stdin: Request: CC(C)n1c(=O)n(C)c2cnc3cc(F)c(-c4ccc(OCCCN5CCCCC5)nc4)cc3c21 + Cc1cnc(CNC(=O)c2c(=O)c3ccc(N4CCCN(C)CC4)nc3n3c2sc2ccccc23)cn1
stdout: 12.8

----------
test system: IGROV1 complex spheroids (HUVEC, MSC), viability % test/control; test: Anticancer human tumor IGROV1 cell line growth inhibition [GQUAD]; details: curve of first compound; second compound 0.0316 µM;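 also: spheroids exposed to compounds for 7 days before readout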
quantity kind: pIC50
In textbook form, pIC50 equals minus log to base ten of the concentration in mol/L.

stdin: Requested read-out: pIC50. Entry: CC1COCCN1c1cc(C2(S(C)(=N)=O)CC2)nc(-c2ccnc3[nH]ccc23)n1 (configuration not stated) + CN(C)c1ccc(Nc2c3ccc(NC(=O)CCN4CCCC4)cc3nc3cc(NC(=O)CCN4CCCC4)ccc23)cc1
stdout: 5.99

stdin: Request: CC1COCCN1c1cc(-c2ccnn2C)c2ccnc(-c3ccn[nH]3)c2n1 (configuration not stated) + Cc1[nH]c2ccc(F)cc2c1-c1nc2c3cccnc3c3ncccc3c2[nH]1
stdout: 7.20

stdin: Request: Cn1ncnc1[C@H]1c2n[nH]c(=O)c3cc(F)cc(c23)N[C@@H]1c1ccc(F)cc1 + Cc1cnc(CNC(=O)c2c(=O)c3ccc(N4CCCN(C)CC4)nc3n3c2sc2ccccc23)cn1
stdout: 7.66

stdin: Request: COc1cc(C2c3cc4c(cc3C(OC3OC5COC(C)OC5C(O)C3O)C3COC(=O)C23)OCO4)cc(OC)c1O (configuration not stated) + Cc1cnc(CNC(=O)c2c(=O)c3ccc(N4CCCN(C)CC4)nc3n3c2sc2ccccc23)cn1
stdout: 7.25

stdin: Request: O=C(c1cc(Cc2n[nH]c(=O)c3ccccc23)ccc1F)N1CCN(C(=O)C2CC2)CC1 + CN(C)c1ccc(Nc2c3ccc(NC(=O)CCN4CCCC4)cc3nc3cc(NC(=O)CCN4CCCC4)ccc23)cc1
stdout: 5.41

stdin: Request: CC(C)n1c(=O)n(C)c2cnc3cc(F)c(-c4ccc(OCCCN5CCCCC5)nc4)cc3c21 + CN(C)c1ccc(Nc2c3ccc(NC(=O)CCN4CCCC4)cc3nc3cc(NC(=O)CCN4CCCC4)ccc23)cc1
stdout: 5.40

----------
test system: IGROV1 complex spheroids (HUVEC, MSC), viability % test/control; test: Anticancer human tumor IGROV1 cell line growth inhibition [GQUAD]; conditions: second compound 0.1 µM; first compound 0.316 µM; active = viability on the fitted dose curve at most 10% of control; inactive = the rest;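 also: spheroids exposed to compounds for 7 days before readout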
Response enum: class 1 = active, class 0 = inactive

stdin: Outcome logged for Cc1[nH]c2ccccc2c1CCNCc1ccc(/C=C/C(=O)NO)cc1 + Cc1cnc(CNC(=O)c2c(=O)c3ccc(N4CCCN(C)CC4)nc3n3c2sc2ccccc23)cn1 in this assay:
stdout: class 1

stdin: Request: Cc1cccc(N(C)C(=O)C2C(O)CCN2c2nc(C)cc(C(F)(F)F)c2C#N)c1 (configuration not stated) + CN(C)c1ccc(Nc2c3ccc(NC(=O)CCN4CCCC4)cc3nc3cc(NC(=O)CCN4CCCC4)ccc23)cc1
stdout: class 0

stdin: Request: CC[C@@]1(O)C(=O)OCc2c1cc1n(c2=O)Cc2cc3c(CN(C)C)c(O)ccc3nc2-1 + CN(C)c1ccc(Nc2c3ccc(NC(=O)CCN4CCCC4)cc3nc3cc(NC(=O)CCN4CCCC4)ccc23)cc1
stdout: class 0

stdin: Request: Cn1ncnc1[C@H]1c2n[nH]c(=O)c3cc(F)cc(c23)N[C@@H]1c1ccc(F)cc1 + Cc1[nH]c2ccc(F)cc2c1-c1nc2c3cccnc3c3ncccc3c2[nH]1
stdout: class 0

stdin: Request: Cc1[nH]c2ccccc2c1CCNCc1ccc(/C=C/C(=O)NO)cc1 + CN(C)c1ccc(Nc2c3ccc(NC(=O)CCN4CCCC4)cc3nc3cc(NC(=O)CCN4CCCC4)ccc23)cc1
stdout: class 1

stdin: Request: Nc1ccn(C2OC(CO)C(O)C2(F)F)c(=O)n1 (configuration not stated) + Cc1[nH]c2ccc(F)cc2c1-c1nc2c3cccnc3c3ncccc3c2[nH]1
stdout: class 1

stdin: Request: O=c1[nH]cc(F)c(=O)[nH]1 + CN(C)c1ccc(Nc2c3ccc(NC(=O)CCN4CCCC4)cc3nc3cc(NC(=O)CCN4CCCC4)ccc23)cc1
stdout: class 0

stdin: Request: COc1ncnc(C2CC2)c1-c1ncc2cnn(Cc3ccc(-c4nc(C(F)(F)F)cn4C(C)C)cc3)c2n1 + CN(C)c1ccc(Nc2c3ccc(NC(=O)CCN4CCCC4)cc3nc3cc(NC(=O)CCN4CCCC4)ccc23)cc1
stdout: class 0

stdin: Request: CC[C@@]1(O)C(=O)OCc2c1cc1n(c2=O)Cc2cc3c(CN(C)C)c(O)ccc3nc2-1 + Cc1[nH]c2ccc(F)cc2c1-c1nc2c3cccnc3c3ncccc3c2[nH]1
stdout: class 0

stdin: Request: COc1cccc2c1C(=O)c1c(O)c3c(c(O)c1C2=O)CC(O)(C(=O)CO)CC3OC1CC(N)C(O)C(C)O1 (configuration not stated) + Cc1[nH]c2ccc(F)cc2c1-c1nc2c3cccnc3c3ncccc3c2[nH]1
stdout: class 1

stdin: Request: CC1COCCN1c1cc(C2(O)CC3CCC(C2)O3)c2cnn(-c3ccn[nH]3)c2n1 (configuration not stated) + Cc1[nH]c2ccc(F)cc2c1-c1nc2c3cccnc3c3ncccc3c2[nH]1
stdout: class 1

stdin: Request: C=CC(=O)N1CCN(c2nc(=O)n(-c3c(C)ccnc3C(C)C)c3nc(-c4c(O)cccc4F)c(F)cc23)C(C)C1 (configuration not stated) + Cc1[nH]c2ccc(F)cc2c1-c1nc2c3cccnc3c3ncccc3c2[nH]1
stdout: class 0

stdin: Request: CC1COCCN1c1cc(-c2ccnn2C)c2ccnc(-c3ccn[nH]3)c2n1 (configuration not stated) + CN(C)c1ccc(Nc2c3ccc(NC(=O)CCN4CCCC4)cc3nc3cc(NC(=O)CCN4CCCC4)ccc23)cc1
stdout: class 0

stdin: Request: C=CCn1c(=O)c2cnc(Nc3ccc(N4CCN(C)CC4)cc3)nc2n1-c1cccc(C(C)(C)O)n1 + Cc1cnc(CNC(=O)c2c(=O)c3ccc(N4CCCN(C)CC4)nc3n3c2sc2ccccc23)cn1
stdout: class 1

stdin: Request: Cc1cccc(N(C)C(=O)C2C(O)CCN2c2nc(C)cc(C(F)(F)F)c2C#N)c1 (configuration not stated) + Cc1[nH]c2ccc(F)cc2c1-c1nc2c3cccnc3c3ncccc3c2[nH]1
stdout: class 0

stdin: Request: O=C(c1cc(Cc2n[nH]c(=O)c3ccccc23)ccc1F)N1CCN(C(=O)C2CC2)CC1 + CN(C)c1ccc(Nc2c3ccc(NC(=O)CCN4CCCC4)cc3nc3cc(NC(=O)CCN4CCCC4)ccc23)cc1
stdout: class 0

stdin: Request: COc1cc(C2c3cc4c(cc3C(OC3OC5COC(C)OC5C(O)C3O)C3COC(=O)C23)OCO4)cc(OC)c1O (configuration not stated) + Cc1[nH]c2ccc(F)cc2c1-c1nc2c3cccnc3c3ncccc3c2[nH]1
stdout: class 0

Measured values drawn from PubChem BioAssay AID2060486 for this set.
